Reference for the values: BindingDB's records for doi:10.1016/j.bmcl.2007.02.059

Assay: Inhibition of human Rsk2
Experimental Endpoint: pIC50
// field semantics: pIC50 = negative decimal log of concentration (mol/L)

Per the record, CN(C)c1nc2ccc1CCCn1cc(c3ccccc31)C1=C(C(=O)NC1=O)c1cn(c3ccccc13)CC2 has pIC50 of 6.07

----------
Assay: Inhibition of human Rsk3
Experimental Endpoint: IC50 (nM)
Number in nM, nothing else.

Memo: CN(C)c1nc2ccc1CCCn1cc(c3ccccc31)C1=C(C(=O)NC1=O)c1cn(c3ccccc13)CC2 , reported IC50: 48
